- Test System: UniProtKB Q6QLK5
- Sequence (Q6QLK5 whole entry, the tested form may be a part): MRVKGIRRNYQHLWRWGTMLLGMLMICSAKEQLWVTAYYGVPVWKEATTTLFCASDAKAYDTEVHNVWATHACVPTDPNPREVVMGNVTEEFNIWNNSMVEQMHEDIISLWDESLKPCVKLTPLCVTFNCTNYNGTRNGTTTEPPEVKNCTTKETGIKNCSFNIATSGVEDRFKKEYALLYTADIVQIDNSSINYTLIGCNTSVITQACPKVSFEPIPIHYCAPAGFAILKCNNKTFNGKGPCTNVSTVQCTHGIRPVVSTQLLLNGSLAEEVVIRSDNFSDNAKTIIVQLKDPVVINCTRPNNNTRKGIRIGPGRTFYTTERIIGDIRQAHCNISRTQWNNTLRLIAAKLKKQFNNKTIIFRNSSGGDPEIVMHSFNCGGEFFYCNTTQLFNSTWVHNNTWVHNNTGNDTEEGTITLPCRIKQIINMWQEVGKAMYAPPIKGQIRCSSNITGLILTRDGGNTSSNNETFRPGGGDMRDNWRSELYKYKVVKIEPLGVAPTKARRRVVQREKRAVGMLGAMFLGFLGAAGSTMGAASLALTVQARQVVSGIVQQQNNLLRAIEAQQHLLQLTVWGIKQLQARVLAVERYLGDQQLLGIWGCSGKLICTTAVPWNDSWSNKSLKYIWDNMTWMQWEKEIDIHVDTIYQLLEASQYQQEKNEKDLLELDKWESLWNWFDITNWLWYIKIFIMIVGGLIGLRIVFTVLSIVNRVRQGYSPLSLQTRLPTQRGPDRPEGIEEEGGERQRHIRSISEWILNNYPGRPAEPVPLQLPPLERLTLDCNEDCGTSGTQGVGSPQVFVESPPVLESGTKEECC
- Assay Method Text: cell-free HIV fusion peptide-binding blockers – biochemical, uHTS, fluorescence dequenching, […] (AID 1986)
Activity calls are given as the source filed them. No stated cut-off is given here; in the data, actives have a measured IC50 and inactives only a lower limit.
Some molecules, each annotated with its measured IC50.

O=C1N=C(NS(=O)(=O)c2ccccc2)S/C1=C\c1cc([N+](=O)[O-])ccc1O ... 12.7 µM (active)
N=C1/C(=C/c2ccc(-c3cccc(C(=O)O)c3)o2)C(=O)N=C2SC=C(c3ccccc3)N12 ... 6.34 µM (active)
COc1cc(/C=C2\C(=N)N3N=C(S(C)(=O)=O)SC3=NC2=O)ccc1OS(=O)(=O)c1ccccc1 ... 19.3 µM (active)
CCS(=O)(=O)C1=NSC2=NC(=O)/C(=C\c3ccc(OS(=O)(=O)c4ccccc4)cc3)C(=N)N21 ... 19.9 µM (active)

Let us move to another entry and its IC50.
The observed IC50 for COc1cc(Cl)cc(C(c2c(C(=O)O)[nH]c3ccccc23)c2c(C(=O)O)[nH]c3ccccc23)c1O when tested with UniProtKB Q6QLK5 stands at 4.81 µM (active)
